assayedTarget: Glutamate receptor ionotropic, kainate 1 (Rattus norvegicus, UniProt P22756)
Sequence (P22756 whole entry): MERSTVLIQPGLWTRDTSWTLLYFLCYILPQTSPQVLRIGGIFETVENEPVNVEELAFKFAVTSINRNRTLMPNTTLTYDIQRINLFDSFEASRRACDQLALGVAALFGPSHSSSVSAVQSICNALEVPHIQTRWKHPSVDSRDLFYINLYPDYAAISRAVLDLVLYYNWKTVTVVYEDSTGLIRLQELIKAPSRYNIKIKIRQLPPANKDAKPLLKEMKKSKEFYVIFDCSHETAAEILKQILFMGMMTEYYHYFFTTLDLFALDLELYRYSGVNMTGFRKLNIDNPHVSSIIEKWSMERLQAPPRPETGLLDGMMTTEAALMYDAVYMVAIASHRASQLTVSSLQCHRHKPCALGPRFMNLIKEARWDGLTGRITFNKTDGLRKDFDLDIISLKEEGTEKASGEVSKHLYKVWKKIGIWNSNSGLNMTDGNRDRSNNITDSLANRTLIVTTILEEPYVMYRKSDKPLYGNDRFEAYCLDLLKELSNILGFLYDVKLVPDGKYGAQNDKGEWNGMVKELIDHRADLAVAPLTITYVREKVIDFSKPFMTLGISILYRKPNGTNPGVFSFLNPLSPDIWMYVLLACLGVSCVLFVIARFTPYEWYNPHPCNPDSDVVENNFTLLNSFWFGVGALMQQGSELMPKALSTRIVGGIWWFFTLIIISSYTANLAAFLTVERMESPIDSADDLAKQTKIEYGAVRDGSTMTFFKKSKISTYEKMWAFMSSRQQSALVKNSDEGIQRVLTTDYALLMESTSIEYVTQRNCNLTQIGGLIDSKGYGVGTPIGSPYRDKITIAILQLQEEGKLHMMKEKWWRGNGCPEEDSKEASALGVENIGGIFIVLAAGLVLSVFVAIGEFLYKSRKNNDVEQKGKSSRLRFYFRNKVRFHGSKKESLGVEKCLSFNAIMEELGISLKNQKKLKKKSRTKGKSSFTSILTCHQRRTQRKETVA
measuredAttribute: Ki

Asked: Observed Ki on Glutamate receptor ionotropic, kainate 1 (Rattus norvegicus, UniProt P22756) for CC(C)(C)c1snc(O)c1CC(N)C(=O)O (stereo unspecified) , please.
Given back: > 10 µM

* * *

Provide the recorded Ki for the entries that follow.

Asked: Form field: Ki recorded for CC(C)(C)c1o[nH]c(=O)c1C[C@H](N)C(=O)O [ATPA-R] with Glutamate receptor 3 (Rattus norvegicus) (enter value)
Given back: > 10 µM

Asked: Enter reported Ki observed with Glutamate receptor 3 (Rattus norvegicus) for CC(C)(C)c1onc(O)c1CC(N)C(=O)O (stereo not drawn) [NSC_2253]
Sequence (P19492 whole entry): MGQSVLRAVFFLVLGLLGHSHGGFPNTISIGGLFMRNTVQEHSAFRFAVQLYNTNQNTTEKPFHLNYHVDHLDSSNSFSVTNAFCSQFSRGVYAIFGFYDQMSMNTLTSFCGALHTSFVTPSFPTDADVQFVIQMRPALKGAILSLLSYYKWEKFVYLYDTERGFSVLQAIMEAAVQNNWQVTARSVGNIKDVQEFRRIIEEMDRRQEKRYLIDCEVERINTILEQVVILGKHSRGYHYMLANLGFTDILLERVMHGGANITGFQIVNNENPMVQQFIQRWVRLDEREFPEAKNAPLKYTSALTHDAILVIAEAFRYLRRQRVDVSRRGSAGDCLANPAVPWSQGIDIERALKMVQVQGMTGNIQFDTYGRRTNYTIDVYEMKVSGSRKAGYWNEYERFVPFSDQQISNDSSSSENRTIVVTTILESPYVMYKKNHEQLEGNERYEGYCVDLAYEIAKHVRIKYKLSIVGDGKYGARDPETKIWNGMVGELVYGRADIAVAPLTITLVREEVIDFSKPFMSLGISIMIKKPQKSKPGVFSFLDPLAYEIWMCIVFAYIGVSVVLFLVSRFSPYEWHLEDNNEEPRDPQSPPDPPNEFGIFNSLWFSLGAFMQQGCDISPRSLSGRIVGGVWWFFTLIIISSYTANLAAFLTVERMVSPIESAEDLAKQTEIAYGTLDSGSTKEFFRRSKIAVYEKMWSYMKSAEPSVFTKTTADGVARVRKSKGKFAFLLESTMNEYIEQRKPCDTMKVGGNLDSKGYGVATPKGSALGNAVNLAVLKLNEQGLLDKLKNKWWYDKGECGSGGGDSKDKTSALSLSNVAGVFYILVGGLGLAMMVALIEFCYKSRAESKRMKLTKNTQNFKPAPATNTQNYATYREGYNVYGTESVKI
Given back: > 10 µM

Asked: Please state recorded Ki (tested on Glutamate receptor 3 (Rattus norvegicus)) of CC(C)(C)c1o[nH]c(=O)c1C[C@@H](N)C(=O)O [ATPA-S]
Given back: 1.8 µM

Numbers sourced from BindingDB's records for doi:10.1016/s0014-2999(00)00916-x.
